System: human muscarinic M1 receptor (Homo sapiens)
Construct: expressed in transfected cells
Sequence (P11229 whole entry): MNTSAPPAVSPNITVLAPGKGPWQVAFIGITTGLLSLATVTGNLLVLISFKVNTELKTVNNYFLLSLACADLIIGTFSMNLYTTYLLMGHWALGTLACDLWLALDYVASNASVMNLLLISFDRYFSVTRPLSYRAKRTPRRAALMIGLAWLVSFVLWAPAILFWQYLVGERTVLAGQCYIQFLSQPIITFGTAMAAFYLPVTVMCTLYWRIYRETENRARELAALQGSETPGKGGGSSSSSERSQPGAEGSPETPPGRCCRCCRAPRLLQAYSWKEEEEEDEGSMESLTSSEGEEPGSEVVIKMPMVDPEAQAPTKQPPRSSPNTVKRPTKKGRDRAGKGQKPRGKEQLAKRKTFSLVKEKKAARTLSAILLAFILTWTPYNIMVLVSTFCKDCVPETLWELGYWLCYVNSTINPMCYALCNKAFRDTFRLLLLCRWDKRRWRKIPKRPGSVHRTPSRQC
Experiment Summary: Alphascreen Surefire phospho-ERK1/2 functional assay, CHO cells expressing M1
Assay type: cell-based
Condition Summary: CHO, read-out: % Emax cf. ACh, M1
Result Type: Emax (%)

{"columns": ["Molecule", "Result Type", "Measured Number"],
 "data": [
  ["CCOC(=O)N1CC2(CCC(N3CCC(N4C(=O)CC[C@H]4C)CC3)C2)C1 (mixture of isomers) [Example 2-7 (mixture of isomers)]", "Emax", 71],
  ["COC(=O)N1CC2(CC(N3CCC(c4nccn4C)CC3)C2)C1", "Emax", 113],
  ["CCOC(=O)N1CC2(CCC(N3CCC(N4C(=O)CC[C@H]4CC)CC3)C2)C1 (mixture of isomers) [Example 2-9 (mixture of isomers)]", "Emax", 100],
  ["CCOC(=O)N1CC2(CCC(N3CCC(N4CC(F)(F)C[C@@H]4CO)CC3)C2)C1 (mixture of isomers) [Example 2-10 (mixture of isomers)]", "Emax", 6],
  ["CCOC(=O)N1CC2(CC(N3CCC(N4CCC[C@@H]4c4cnco4)CC3)C2)C1", "Emax", 67],
  ["CCOC(=O)N1CC2(CCC(N3CCC(n4cccn4)CC3)C2)C1 (racemic) [Example 2-3 (racemic)]", "Emax", 105],
  ["CCOC(=O)N1CC2(CC(N3CCC(N4C(=O)CC[C@@H]4C)CC3)C2)C1", "Emax", 67],
  ["COC(=O)N1CC2(CCC(N3CCC(N4CCC[C@@H]4c4cnco4)CC3)C2)C1 (single isomer, unassigned) [Example 2-11 (Isomer 2)]", "Emax", 24],
  ["CCOC(=O)N1CC2(CCC(N3CCC([C@@H]4CCCN4C(=O)NC)CC3)C2)C1 (mixture of isomers) [Example 2-4 (mixture of isomers)]", "Emax", 39],
  ["CCOC(=O)N1CC2(CC(N3CCC([C@@H]4CCCN4C(=O)NC)CC3)C2)C1", "Emax", 71],
  ["CCOC(=O)N1CC2(CCC(N3CCC(c4nccn4C)CC3)C2)C1 (racemic) [Example 2-2 (racemic)]", "Emax", 7],
  ["CCOC(=O)N1CC2(CCC(N3CCC(N4CCC[C@@H]4c4cnco4)CC3)C2)C1 (single isomer, unassigned) [Example 2-12 (Isomer 2)]", "Emax", 50]
]}

---

System: human muscarinic M3 receptor (Homo sapiens, UniProt P20309)
Construct: expressed in transfected cells
Sequence (P20309 whole entry): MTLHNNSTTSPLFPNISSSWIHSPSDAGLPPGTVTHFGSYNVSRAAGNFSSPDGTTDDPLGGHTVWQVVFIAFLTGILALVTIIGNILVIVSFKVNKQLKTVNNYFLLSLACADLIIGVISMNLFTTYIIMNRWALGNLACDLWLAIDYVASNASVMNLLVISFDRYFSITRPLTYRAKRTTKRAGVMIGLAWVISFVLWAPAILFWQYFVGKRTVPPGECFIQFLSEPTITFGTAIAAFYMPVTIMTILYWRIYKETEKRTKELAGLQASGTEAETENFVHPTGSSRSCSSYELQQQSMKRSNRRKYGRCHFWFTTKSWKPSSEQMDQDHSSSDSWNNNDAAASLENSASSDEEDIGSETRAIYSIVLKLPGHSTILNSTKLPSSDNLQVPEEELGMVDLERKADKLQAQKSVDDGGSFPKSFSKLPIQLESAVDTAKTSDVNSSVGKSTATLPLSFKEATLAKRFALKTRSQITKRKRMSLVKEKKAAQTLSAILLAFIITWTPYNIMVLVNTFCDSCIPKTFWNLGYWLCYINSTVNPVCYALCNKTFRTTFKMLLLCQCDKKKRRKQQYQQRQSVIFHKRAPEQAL
Experiment Summary: Alphascreen Surefire phospho-ERK1/2 functional assay, CHO cells expressing M3
Assay type: cell-based
Condition Summary: CHO, read-out: % Emax cf. ACh, M3

{"columns": ["Compound", "System", "Measurement Unit", "Emax"],
 "data": [
  ["CCOC(=O)N1CC2(CC(N3CCC(N4CCC[C@@H]4c4cn(C)c(=O)o4)CC3)C2)C1 [Example 1-7]", "human muscarinic M3 receptor (Homo sapiens, UniProt P20309)", "%", 6],
  ["CCOC(=O)N1CC2(CC(N3CCC(N4CCC[C@@H]4c4cnco4)CC3)C2)C1 [Example 1-6]", "human muscarinic M3 receptor (Homo sapiens, UniProt P20309)", "%", 16],
  ["COC(=O)N1CC2(CCC(N3CCC(c4nccn4C)CC3)C2)C1 (racemic) [Example 2-1 (racemic)]", "human muscarinic M3 receptor (Homo sapiens, UniProt P20309)", "%", 9],
  ["CCOC(=O)N1CC2(CCC(N3CCC(N4C(=O)CC[C@@H]4CC)CC3)C2)C1 (mixture of isomers) [Example 2-6 (mixture of isomers)]", "human muscarinic M3 receptor (Homo sapiens, UniProt P20309)", "%", 13],
  ["CCOC(=O)N1CC2(CCC(N3CCC(N4C(=O)CC[C@H]4C)CC3)C2)C1 (mixture of isomers) [Example 2-7 (mixture of isomers)]", "human muscarinic M3 receptor (Homo sapiens, UniProt P20309)", "%", 53],
  ["CCOC(=O)N1CC2(CCC(N3CCC(N4C(=O)CC[C@@H]4C)CC3)C2)C1 (mixture of isomers) [Example 2-5 (mixture of isomers)]", "human muscarinic M3 receptor (Homo sapiens, UniProt P20309)", "%", 3],
  ["CCOC(=O)N1CC2(CC(N3CCC([C@@H]4CCCN4C(=O)NC)CC3)C2)C1 [Example 1-4]", "human muscarinic M3 receptor (Homo sapiens, UniProt P20309)", "%", 7],
  ["CCOC(=O)N1CC2(CCC(N3CCC(n4cccn4)CC3)C2)C1 (racemic) [Example 2-3 (racemic)]", "human muscarinic M3 receptor (Homo sapiens, UniProt P20309)", "%", 5],
  ["CCOC(=O)N1CC2(CCC(N3CCC(N4CCC[C@@H]4c4cnco4)CC3)C2)C1 (single isomer, unassigned) [Example 2-12 (Isomer 2)]", "human muscarinic M3 receptor (Homo sapiens, UniProt P20309)", "%", 5],
  ["CCOC(=O)N1CC2(CCC(N3CCC(N4C(=O)CC[C@H]4CC)CC3)C2)C1 (mixture of isomers) [Example 2-9 (mixture of isomers)]", "human muscarinic M3 receptor (Homo sapiens, UniProt P20309)", "%", 8],
  ["CCOC(=O)N1CC2(CC(N3CCC(N4CC(F)(F)C[C@@H]4CO)CC3)C2)C1 [Example 1-12]", "human muscarinic M3 receptor (Homo sapiens, UniProt P20309)", "%", 11],
  ["CCOC(=O)N1CC2(CCC(N3CCC([C@@H]4CCCN4C(=O)NC)CC3)C2)C1 (mixture of isomers) [Example 2-4 (mixture of isomers)]", "human muscarinic M3 receptor (Homo sapiens, UniProt P20309)", "%", 2],
  ["CCOC(=O)N1CC2(CCC(N3CCC(c4nccn4C)CC3)C2)C1 (racemic) [Example 2-2 (racemic)]", "human muscarinic M3 receptor (Homo sapiens, UniProt P20309)", "%", 5],
  ["CCOC(=O)N1CC2(CC(N3CCC(N4CCCC4c4ccon4)CC3)C2)C1 (racemic) [Example 1-5 (racemic)]", "human muscarinic M3 receptor (Homo sapiens, UniProt P20309)", "%", 10],
  ["COC(=O)N1CC2(CCC(N3CCC(N4CCC[C@@H]4c4cnco4)CC3)C2)C1 (single isomer, unassigned) [Example 2-11 (Isomer 2)]", "human muscarinic M3 receptor (Homo sapiens, UniProt P20309)", "%", 4]
]}

---

System: human muscarinic M2 receptor (Homo sapiens)
Construct: expressed in transfected cells
Sequence (P08172 1-466): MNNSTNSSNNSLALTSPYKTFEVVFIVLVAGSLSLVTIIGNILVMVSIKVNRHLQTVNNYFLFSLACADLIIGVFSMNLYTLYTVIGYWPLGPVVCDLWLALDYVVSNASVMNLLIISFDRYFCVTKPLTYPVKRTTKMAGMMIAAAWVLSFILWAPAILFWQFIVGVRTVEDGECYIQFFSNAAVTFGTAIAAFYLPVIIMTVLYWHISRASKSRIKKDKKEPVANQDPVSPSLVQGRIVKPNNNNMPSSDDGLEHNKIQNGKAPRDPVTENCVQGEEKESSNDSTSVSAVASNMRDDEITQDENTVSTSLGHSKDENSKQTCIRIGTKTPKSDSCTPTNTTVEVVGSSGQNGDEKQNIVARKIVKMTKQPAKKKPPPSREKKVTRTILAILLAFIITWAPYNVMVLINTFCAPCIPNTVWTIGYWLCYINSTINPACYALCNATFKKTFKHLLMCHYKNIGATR
Experiment Summary: Alphascreen Surefire phospho-ERK1/2 functional assay, CHO cells expressing M2
Type: cell-based
Condition Summary: CHO, read-out: % Emax cf. ACh, M2
Experimental: ERK1/2 phosphorylation is a downstream consequence of both Gq/11 and Gi/o protein coupled receptor activation, making it highly suitable for the assessment of M1, M3 (Gq/11 coupled) and M2, M4 receptors (Gi/o coupled), rather than using different assay formats for different receptor subtypes. CHO cells stably expressing the human muscarinic M1, M2, M3 or M4 receptor were plated (25K/well) onto 96-well tissue culture plates in MEM-alpha+10% dialysed FBS. […]

{"columns": ["Compound", "Emax [%]"],
 "data": [
  ["CCOC(=O)N1CC2(CCC(N3CCC(N4C(=O)CC[C@H]4CC)CC3)C2)C1 (mixture of isomers) [Example 2-9 (mixture of isomers)]", 11],
  ["COC(=O)N1CC2(CCC(N3CCC(c4nccn4C)CC3)C2)C1 (racemic) [Example 2-1 (racemic)]", 17],
  ["CCOC(=O)N1CC2(CC(N3CCC([C@@H]4CCCN4C(=O)NC)CC3)C2)C1 [Example 1-4]", 6],
  ["CCOC(=O)N1CC2(CC(N3CCC(N4CCC[C@@H]4c4cnco4)CC3)C2)C1 [Example 1-6]", 4]
]}

---

Quick reference: Emax of the listed items.
System: human muscarinic M2 receptor (Homo sapiens, UniProt P08172)
Construct: expressed in transfected cells
Experiment Summary: Alphascreen Surefire phospho-ERK1/2 functional assay, CHO cells expressing M2
Format: cell-based
Condition Summary: CHO, read-out: % Emax cf. ACh, M2
Result Type: Emax (%)

{"columns": ["Compound", "Result Type", "Measured Number"],
 "data": [
  ["CCOC(=O)N1CC2(CC(N3CCC(N4CC(F)(F)C[C@@H]4CO)CC3)C2)C1 [Example 1-12]", "Emax", 7],
  ["CCOC(=O)N1CC2(CC(N3CCC(N4CCC[C@@H]4c4cn(C)c(=O)o4)CC3)C2)C1 [Example 1-7]", "Emax", 10],
  ["CCOC(=O)N1CC2(CC(N3CCC(N4CCCC4c4ccon4)CC3)C2)C1 (racemic) [Example 1-5 (racemic)]", "Emax", 67],
  ["COC(=O)N1CC2(CCC(N3CCC(N4CCC[C@@H]4c4cnco4)CC3)C2)C1 (single isomer, unassigned) [Example 2-11 (Isomer 2)]", "Emax", 6],
  ["CCOC(=O)N1CC2(CCC(N3CCC(N4C(=O)CC[C@@H]4CC)CC3)C2)C1 (mixture of isomers) [Example 2-6 (mixture of isomers)]", "Emax", 8],
  ["CCOC(=O)N1CC2(CCC(N3CCC(N4C(=O)CC[C@@H]4C)CC3)C2)C1 (mixture of isomers) [Example 2-5 (mixture of isomers)]", "Emax", 6],
  ["CCOC(=O)N1CC2(CCC(N3CCC(n4cccn4)CC3)C2)C1 (racemic) [Example 2-3 (racemic)]", "Emax", 2],
  ["CCOC(=O)N1CC2(CCC(N3CCC(N4C(=O)CC[C@H]4C)CC3)C2)C1 (mixture of isomers) [Example 2-7 (mixture of isomers)]", "Emax", 9],
  ["CCOC(=O)N1CC2(CCC(N3CCC(c4nccn4C)CC3)C2)C1 (racemic) [Example 2-2 (racemic)]", "Emax", 7],
  ["CCOC(=O)N1CC2(CCC(N3CCC(N4CCC[C@@H]4c4cnco4)CC3)C2)C1 (single isomer, unassigned) [Example 2-12 (Isomer 2)]", "Emax", 7],
  ["CCOC(=O)N1CC2(CCC(N3CCC([C@@H]4CCCN4C(=O)NC)CC3)C2)C1 (mixture of isomers) [Example 2-4 (mixture of isomers)]", "Emax", 4]
]}
